Provide the reported relative viability of each item.
Tested on: NCI-H727
ASSAY TEXT: relative viability (nuclei count vs DMSO), 5 days (fraction); higher = more cells survive
EXPERIMENTAL CONTEXT: first compound 5 µM
Answers are plain numbers.

Take a look at these entries with their results.
- COMPOUND: "O=C(O)CCCCC(CCSCc1ccccc1)SCc1ccccc1 (stereo not drawn) [CPI-613] + C[C@]1(O)C[C@@H](c2nc(-c3ccc4ccc(-c5ccccc5)nc4c3)c3c(N)nccn32)C1 [Linsitinib] (partner 1 µM)"
  relative viability: 0.251
- COMPOUND: "O=C(O)CCCCC(CCSCc1ccccc1)SCc1ccccc1 (stereo not drawn) [CPI-613] + Cc1cc(Nc2cc(N3CCN(C)CC3)nc(Sc3ccc(NC(=O)C4CC4)cc3)n2)n[nH]1 [Tozasertib] (partner 0.1 µM)"
  relative viability: 0.557

Kindly consider the entry below.
Lab note: measured relative viability of O=C(O)CCCCC(CCSCc1ccccc1)SCc1ccccc1 (stereo not drawn) [CPI-613] + NC(=O)Nc1cc(-c2cccc(F)c2)sc1C(=O)N[C@H]1CCCNC1 [AZD7762] (partner 0.2 µM) was 0.617

###

System: NCI-H1944
ASSAY TEXT: relative viability (nuclei count vs DMSO), 5 days (fraction); higher = more cells survive
EXPERIMENTAL CONTEXT: first compound 0.1581 µM
Exercise: for every item that follows, state its recorded relative viability.

- COMPOUND: "COc1cc2nccc(Oc3ccc(NC(=O)Nc4cc(C)on4)c(Cl)c3)c2cc1OC [Tivozanib] + Cc1nc(Nc2ncc(C(=O)Nc3c(C)cccc3Cl)s2)cc(N2CCN(CCO)CC2)n1 [Dasatinib] (partner 0.075 µM)"
  relative viability: 0.192
- COMPOUND: "COc1cc2nccc(Oc3ccc(NC(=O)Nc4cc(C)on4)c(Cl)c3)c2cc1OC [Tivozanib] + C[C@@H](Oc1cc(-c2cnn(C3CCNCC3)c2)cnc1N)c1c(Cl)ccc(F)c1Cl [Crizotinib] (partner 1 µM)"
  relative viability: 1.02
- COMPOUND: "Nc1ccn([C@@H]2O[C@H](CO)[C@@H](O)[C@@H]2O)c(=O)n1 [Cytarabine] + Nc1ncn([C@H]2C[C@H](O)[C@@H](CO)O2)c(=O)n1 [Decitabine] (partner 2 µM)"
  relative viability: 0.194
- COMPOUND: "COc1cc2nccc(Oc3ccc(NC(=O)Nc4cc(C)on4)c(Cl)c3)c2cc1OC [Tivozanib] + CCNC(=O)c1noc(-c2cc(C(C)C)c(O)cc2O)c1-c1ccc(CN2CCOCC2)cc1 [Luminespib] (partner 0.01 µM)"
  relative viability: 0.625
- COMPOUND: "COc1cc2nccc(Oc3ccc(NC(=O)Nc4cc(C)on4)c(Cl)c3)c2cc1OC [Tivozanib] + CS(=O)(=O)N1CCN(Cc2cc3nc(-c4cccc5[nH]ncc45)nc(N4CCOCC4)c3s2)CC1 [Pictilisib] (partner 1 µM)"
  relative viability: 0.289

I'm hoping you can list relative viability for every compound here, please.
1. Nc1ccn([C@@H]2O[C@H](CO)[C@@H](O)[C@@H]2O)c(=O)n1 [Cytarabine] + C[C@]1(O)C[C@@H](c2nc(-c3ccc4ccc(-c5ccccc5)nc4c3)c3c(N)nccn32)C1 [Linsitinib] (partner 1 µM)
2. Nc1ccn([C@@H]2O[C@H](CO)[C@@H](O)[C@@H]2O)c(=O)n1 [Cytarabine] + CC(=O)Nc1cccc(-n2c(=O)n(C3CC3)c(=O)c3c(Nc4ccc(I)cc4F)n(C)c(=O)c(C)c32)c1 [Trametinib] (partner 0.02 µM)

result:
0.216
0.168
